# System: p21 induction in HCT116 cells
# Method description: p21 induction in HCT116 cells
# Assay type: cell-based
# Settings: Homo sapiens, HCT-116, 24 h, HCT116 cells, 24 h compound incubation; read-out: P21_EC50
Parameter: EC50

- CCc1c(N2CCN(C(=O)c3[nH]nc(C)c3O)CC2)c(=O)c2ncc(C)nc2n1CC(=O)Nc1ccc(C(F)(F)F)cc1Cl: > 5000 nM
- CCc1c(N2CCN(C(=O)c3cccc4ncoc34)[C@H]3CC[C@@H]32)c(=O)c2nc(N(C)C)cnc2n1CC(=O)Nc1ccc(C(F)(F)F)cc1Cl: 2000 to 5000 nM

Query block: Recall and state the measured EC50 for CCc1c(N2CCN(C(=O)c3ncnc(C)c3O)[C@H]3CC[C@@H]32)c(=O)c2nc(N3CCNCC3)cnc2n1CC(=O)Nc1ccc(C(F)(F)F)cc1Cl .
Result block: > 5000 nM

Query block: Recall and state the measured EC50 for CCc1c(N2CCN(C(=O)c3c(OC(F)F)ncc(C)c3O)[C@H]3CC[C@@H]32)c(=O)c2nc(N(C)C)cnc2n1CC(=O)Nc1ccc(C(F)(F)F)cc1Cl .
Result block: < 500 nM

Query block: Recall and state the measured EC50 for CCc1c(N2CCN(C(=O)c3ncnc(C)c3O)CC2)c(=O)c2nc(/C=C3/CCOC3)cnc2n1CC(=O)Nc1ccc(C(F)(F)F)cc1Cl .
Result block: 2000 to 5000 nM

###

# Target system: WRN (BV08), human Werner helicase (Uniprot Q14191, amino acids 517-1235 with L1074F point mutation) (Homo sapiens (Human), UniProt Q14191, L1074F)
# Sequence (Q14191 other isoform, or with tags, fused parts or gaps L1074F (already in the parent)): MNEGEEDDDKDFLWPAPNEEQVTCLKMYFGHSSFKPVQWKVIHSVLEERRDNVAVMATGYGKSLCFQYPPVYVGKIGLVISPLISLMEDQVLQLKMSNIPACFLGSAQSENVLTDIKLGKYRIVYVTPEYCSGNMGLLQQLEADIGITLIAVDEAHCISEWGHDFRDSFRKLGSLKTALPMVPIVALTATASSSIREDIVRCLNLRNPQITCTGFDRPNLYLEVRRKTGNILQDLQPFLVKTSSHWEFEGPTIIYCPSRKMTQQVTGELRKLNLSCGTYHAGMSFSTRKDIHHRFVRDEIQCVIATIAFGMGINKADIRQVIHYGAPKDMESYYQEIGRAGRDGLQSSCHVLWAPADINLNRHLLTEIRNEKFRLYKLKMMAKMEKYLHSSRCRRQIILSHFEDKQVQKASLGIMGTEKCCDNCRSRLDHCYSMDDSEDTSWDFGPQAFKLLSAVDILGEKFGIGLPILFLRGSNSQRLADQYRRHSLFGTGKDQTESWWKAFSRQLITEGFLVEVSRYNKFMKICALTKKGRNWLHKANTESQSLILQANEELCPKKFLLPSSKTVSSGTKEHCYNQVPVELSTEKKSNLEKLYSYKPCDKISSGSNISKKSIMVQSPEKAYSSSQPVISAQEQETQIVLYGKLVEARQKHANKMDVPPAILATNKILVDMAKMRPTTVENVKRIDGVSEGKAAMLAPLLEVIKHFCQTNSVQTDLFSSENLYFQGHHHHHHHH
# Method description: WRN (BV08) ADP-Glo assay
# Settings: class symbols A-E, read-out: ADP-Glo_hWRN_IC50
Reported IC50 values for the following compounds.

Below are worked cases with known answers.
- CCc1c(N2CCN(C(=O)c3c(OC(F)F)ncc(C)c3O)[C@H]3CC[C@@H]32)c(=O)c2nc(N(C)C)cnc2n1CC(=O)Nc1ccc(C(F)(F)F)cc1Cl: 5 to 50 nM
- CCc1c(N2CCN(C(=O)c3ncnc(C)c3O)C[C@@H]2CO)c(=O)c2nc(N(C)C)cnc2n1CC(=O)Nc1ccc(C(F)(F)F)cc1Cl: 5 to 50 nM
- CCc1c(N2CCN(C(=O)c3ncnc(C)c3O)[C@H]3CC[C@@H]32)c(=O)c2nc(N(C)CCO)cnc2n1CC(=O)Nc1ccc(C(F)(F)F)cc1Cl: 5 to 50 nM

Query block: Recall and state the measured IC50 for CCc1c(N2CCN(C(=O)c3ncnc(C)c3O)[C@H]3CC[C@@H]32)c(=O)c2nc(-c3ccnn3C)cnc2n1CC(=O)Nc1ccc(C(F)(F)F)cc1Cl .
Result block: ≤ 5 nM

###

# Test system: p21 induction in HCT116 cells
# Method description: p21 induction in HCT116 cells
# Format: cell-based
# Settings: Homo sapiens, HCT-116, 24 h, HCT116 cells, 24 h compound incubation; read-out: P21_EC50
Parameter: EC50

Query block: Report measured EC50 on p21 induction in HCT116 cells; entry: CCc1c(N2CCN(C(=O)c3ncnc(C)c3O)CC2)c(=O)c2nc(N(C)CC(F)F)cnc2n1CC(=O)Nc1ccc(C(F)(F)F)cc1Cl [I-167]
Result block: 2000 to 5000 nM

Query block: Report measured EC50 on p21 induction in HCT116 cells; entry: CCc1c(N2CCN(C(=O)c3ncnc(C)c3O)[C@H]3CC[C@@H]32)c(=O)c2nc(N(C)C)cnc2n1CC(=O)Nc1cc(F)c(C(F)(F)F)cc1C [I-236]
Result block: < 500 nM

Query block: Report measured EC50 on p21 induction in HCT116 cells; entry: CCc1c(N2CCN(C(=O)c3ncnc(C)c3O)[C@H]3CC[C@@H]32)c(=O)c2nc(N(C)C)cnc2n1CC(=O)Nc1ccc(C(F)(F)F)nc1Cl [I-222]
Result block: < 500 nM

Query block: Report measured EC50 on p21 induction in HCT116 cells; entry: CCc1c(N2CCN(C(=O)c3c(OC)ncc(C)c3O)CC2)c(=O)c2nc(N(C)C)cnc2n1CC(=O)Nc1ccc(C(F)(F)F)cc1Cl [I-204]
Result block: < 500 nM

Query block: Report measured EC50 on p21 induction in HCT116 cells; entry: CCc1c(N2CCN(C(=O)c3ncnc(C)c3O)CC2)c(=O)c2nc(O)cnc2n1CC(=O)Nc1ccc(C(F)(F)F)cc1Cl [I-24]
Result block: > 5000 nM
